Item-by-item account of LD50
- experiment-description: in vivo
- measurement-conditions: iv, Mouse

{"columns": ["molecule", "LD50"],
 "data": [
  ["CCC1(O)CC(OC2CC(N(C)C)C(OC3CC(O)C(OC4CCC(O)C(C)O4)C(C)O3)C(C)O2)c2c(cc3c(c2O)C(=O)c2c(O)ccc(O)c2C3=O)C1C(=O)OC (centres unmarked)", "12 to 20 mg/kg"]
]}

Query string: Which LD50 value is on record for CCC1(O)CC(OC2CC(N(C)C)C(OC3CC(O)C(OC4CCC(O)C(C)O4)C(C)O3)C(C)O2)c2c(cc3c(c2O)C(=O)c2c(O)cccc2C3=O)C1C(=O)OC (centres unmarked) ?
Result string: 30 to 35 mg/kg
